These measurements were taken from patent US9113629B2.

# Tested on: Key Broadleaf Weed and Crop Species
# assay_comment: Post-emergent Test II herbicidal activity (Table 5)
# Assay type: in vivo
# conditions: post-emergence, 336 h; AMARE: redroot pigweed (Amaranthus retroflexus); 140 g ai/ha; post-emergent; 14 days after application; read-out: Visual Growth Reduction (%) 14 Days After Application AMARE
measured_attribute: pest or weed control at 140 g/ha

Query :: # get_value(readout= pest or weed control at 140 g/ha, system= Key Broadleaf Weed and Crop Species) for COC(=O)c1nc(-c2ccc(I)c(F)c2)nc(N)c1OC [Compound 27]
Result :: 75 to 84%

Query :: # get_value(readout= pest or weed control at 140 g/ha, system= Key Broadleaf Weed and Crop Species) for COC(=O)c1nc(-c2cc(F)c(C(F)(F)F)cc2F)nc(N)c1OC [Compound 148]
Result :: 0 to 29%

Query :: # get_value(readout= pest or weed control at 140 g/ha, system= Key Broadleaf Weed and Crop Species) for Nc1cc(-c2ccc(Br)cc2F)nc(C(=O)O)c1Cl [Compound 74]
Result :: 95 to 100%

Query :: # get_value(readout= pest or weed control at 140 g/ha, system= Key Broadleaf Weed and Crop Species) for COC(=O)c1nc(-c2cc(F)c(I)cc2F)nc(N)c1OC [Compound 101]
Result :: 85 to 94%

Query :: # get_value(readout= pest or weed control at 140 g/ha, system= Key Broadleaf Weed and Crop Species) for C=Cc1c(N)nc(-c2ccc(C(F)(F)F)c(F)c2)nc1C(=O)O [Compound 32]
Result :: 95 to 100%

Query :: # get_value(readout= pest or weed control at 140 g/ha, system= Key Broadleaf Weed and Crop Species) for COC(=O)c1nc(-c2cc(F)c(Br)cc2F)c(F)c(N)c1Cl [Compound 51]
Result :: 95 to 100%

###

# Tested on: test plant species in Direct Seeded Rice
# assay_comment: Postemergence herbicidal activity in direct seeded rice (Table 13)
# Format: in vivo
# conditions: post-emergence, 504 h; LEFSS: sprangletop (Leptochloa chinensis, Leptochloa dubia); 35 g ai/ha; read-out: Visual Growth Reduction (%) 21 Days After Application LEFSS
Please go through the items and note down their pest or weed control at 35 g/ha.

Query :: Give the measured pest or weed control at 35 g/ha of COC(=O)c1nc(-c2ccc(I)cc2)c(Cl)c(N)c1Cl [Compound 96] .
Result :: 85 to 94%

Query :: Give the measured pest or weed control at 35 g/ha of COC(=O)c1nc(-c2ccc(I)cc2F)cc(N)c1Cl [Compound 159] .
Result :: 95 to 100%

Query :: Give the measured pest or weed control at 35 g/ha of COc1c(N)nc(-c2ccc(Br)c(F)c2F)nc1C(=O)O [Compound 8] .
Result :: 0 to 29%

Query :: Give the measured pest or weed control at 35 g/ha of COc1c(N)nc(-c2cc(F)c(Br)cc2F)nc1C(=O)O [Compound 11] .
Result :: 0 to 29%

###

Please go through the items and note down their pest or weed control at 70 g/ha.
# Test system: Key Grass and Sedge Weeds as well as Grass Crops
# assay_comment: Post-emergent Test II herbicidal activity (Table 6)
# Type: in vivo
# conditions: post-emergence, 336 h, ORYSA: rice (Oryza sativa), application rate 70 g ai/ha, read-out: Visual Growth Reduction (%) 14 Days After Application, ORYSA

Query :: Give the measured pest or weed control at 70 g/ha of C=Cc1c(N)nc(-c2ccc(C#N)cc2F)nc1C(=O)OC .
Result :: 0 to 29%

Query :: Give the measured pest or weed control at 70 g/ha of C#Cc1ccc(-c2nc(C(=O)OC)c(Cl)c(N)c2C)cc1F .
Result :: 0 to 29%

Query :: Give the measured pest or weed control at 70 g/ha of C=Cc1c(C(=O)OC)nc(-c2ccc(Br)cc2)c(F)c1N .
Result :: 0 to 29%

Query :: Give the measured pest or weed control at 70 g/ha of Nc1cc(-c2c(F)cc(Br)c(F)c2F)nc(C(=O)O)c1Cl .
Result :: 45 to 59%

Query :: Give the measured pest or weed control at 70 g/ha of Nc1cc(-c2ccc(I)cc2F)nc(C(=O)O)c1Cl .
Result :: 30 to 44%

Query :: Give the measured pest or weed control at 70 g/ha of C=Cc1c(C(=O)O)nc(-c2ccc(Br)cc2)c(F)c1N .
Result :: 45 to 59%

Query :: Give the measured pest or weed control at 70 g/ha of COc1c(N)nc(-c2ccc(Br)c(F)c2)nc1C(=O)O .
Result :: 30 to 44%

Query :: Give the measured pest or weed control at 70 g/ha of COC(=O)c1nc(-c2ccc(C#N)c(F)c2)c(C)c(N)c1Cl .
Result :: 0 to 29%

Query :: Give the measured pest or weed control at 70 g/ha of COC(=O)c1nc(-c2ccc(Br)cc2F)cc(N)c1Cl .
Result :: 0 to 29%

Query :: Give the measured pest or weed control at 70 g/ha of COC(=O)c1nc(-c2cc(F)c(F)cc2F)c(F)c(N)c1Cl .
Result :: 0 to 29%

Query :: Give the measured pest or weed control at 70 g/ha of COC(=O)c1nc(-c2cc(F)c(C(F)F)cc2F)c(F)c(N)c1Cl .
Result :: 0 to 29%

Query :: Give the measured pest or weed control at 70 g/ha of COc1c(N)nc(-c2cc(F)c(I)cc2F)nc1C(=O)O .
Result :: 0 to 29%

Query :: Give the measured pest or weed control at 70 g/ha of C=Cc1c(C(=O)O)nc(-c2ccc(C(F)(F)F)c(F)c2)c(F)c1N .
Result :: 30 to 44%

Query :: Give the measured pest or weed control at 70 g/ha of COC(=O)c1nc(-c2cccc(F)c2)c(F)c(N)c1Cl .
Result :: 0 to 29%

Query :: Give the measured pest or weed control at 70 g/ha of Nc1c(Cl)c(C(=O)O)nc(-c2ccc(C(F)(F)F)c(F)c2)c1Cl .
Result :: 0 to 29%

Query :: Give the measured pest or weed control at 70 g/ha of COc1c(N)nc(-c2cc(F)c(C)cc2F)nc1C(=O)O .
Result :: 0 to 29%

Query :: Give the measured pest or weed control at 70 g/ha of C=Cc1c(C(=O)OC)nc(-c2ccc(C(F)(F)F)c(F)c2)c(F)c1N .
Result :: 0 to 29%

Query :: Give the measured pest or weed control at 70 g/ha of C=Cc1c(C(=O)O)nc(-c2ccc(I)cc2)c(F)c1N .
Result :: 60 to 74%

Query :: Give the measured pest or weed control at 70 g/ha of COC(=O)c1nc(-c2cc(F)c(C#N)cc2F)c(F)c(N)c1Cl .
Result :: 0 to 29%
